# Tested on: Candida albicans SNY425 biofilm
# test: biofilm OD600 with compound plus antifungal (OD600 (absorbance)); higher = more biofilm remaining
# measurement.setup: assay detail: sustained inhibition (compound + antifungal during 90-min adherence and 24-h growth)

| compound | assayed.target | biofilm OD600 |
| --- | --- | --- |
| CCCCC[C@H](CC(=O)NO)C(=O)N[C@H](C(=O)N1CCC[C@H]1CO)C(C)C [Actinonin] + OC(Cn1cncn1)(Cn1cncn1)c1ccc(F)cc1F [fluconazole] (first compound 12.5 µM) | Candida albicans SNY425 biofilm | 0.145 |
| CC(C)(C)NC(=O)[C@@H]1C[C@@H]2CCCC[C@@H]2CN1C[C@@H](O)[C@H](Cc1ccccc1)NC(=O)[C@H](CC(N)=O)NC(=O)c1ccc2ccccc2n1 [saquinavir] + C[C@@H]1[C@H](O)[C@@H](C)/C=C/C=C/C=C/C=C/C=C/C=C/C=C/[C@H](O[C@@H]2O[C@H](C)[C@@H](O)[C@H](N)[C@@H]2O)C[C@@H]2O[C@](O)(C[C@@H](O)C[C@@H](O)[C@H](O)CC[C@@H](O)C[C@@H](O)CC(=O)O[C@H]1C)C[C@H](O)[C@H]2C(=O)O [amphotericin B] (first compound 12.5 µM) | Candida albicans SNY425 biofilm | 0.0922 |
| CCCCC[C@H](CC(=O)NO)C(=O)N[C@H](C(=O)N1CCC[C@H]1CO)C(C)C [Actinonin] + C[C@@H]1[C@H](O)[C@@H](C)/C=C/C=C/C=C/C=C/C=C/C=C/C=C/[C@H](O[C@@H]2O[C@H](C)[C@@H](O)[C@H](N)[C@@H]2O)C[C@@H]2O[C@](O)(C[C@@H](O)C[C@@H](O)[C@H](O)CC[C@@H](O)C[C@@H](O)CC(=O)O[C@H]1C)C[C@H](O)[C@H]2C(=O)O [amphotericin B] (first compound 12.5 µM) | Candida albicans SNY425 biofilm | 0.191 |
| COC(=O)N[C@H](C(=O)N[C@@H](Cc1ccccc1)[C@@H](O)CN(Cc1ccc(-c2ccccn2)cc1)NC(=O)[C@@H](NC(=O)OC)C(C)(C)C)C(C)(C)C [atazanavir] + CC[C@H](C)C[C@H](C)CCCCCCCCC(=O)N[C@H]1C[C@@H](O)[C@@H](NCCN)NC(=O)[C@@H]2[C@@H](O)CCN2C(=O)[C@H]([C@H](O)CCN)NC(=O)[C@H]([C@H](O)[C@@H](O)c2ccc(O)cc2)NC(=O)[C@@H]2C[C@@H](O)CN2C(=O)[C@H]([C@@H](C)O)NC1=O [caspofungin] (first compound 12.5 µM) | Candida albicans SNY425 biofilm | 0.201 |
| C[C@]1(Cn2ccnn2)[C@H](C(=O)O)N2C(=O)C[C@H]2S1(=O)=O [Tazobactam] + OC(Cn1cncn1)(Cn1cncn1)c1ccc(F)cc1F [fluconazole] (first compound 12.5 µM) | Candida albicans SNY425 biofilm | 0.12 |

----------
# Test system: Candida albicans SNY425 biofilm
# test: biofilm OD600 with compound plus antifungal (OD600 (absorbance)); higher = more biofilm remaining
# measurement.setup: assay detail: disruption of 24-h mature biofilm (compound + antifungal for a second 24 h)
A collection of compounds and their measured biofilm OD600

| compound | biofilm OD600 |
| --- | --- |
| O=C(O)CNC(=O)C(CS)Cc1ccccc1 (racemic) [DL-Thiorphan] + C[C@@H]1[C@H](O)[C@@H](C)/C=C/C=C/C=C/C=C/C=C/C=C/C=C/[C@H](O[C@@H]2O[C@H](C)[C@@H](O)[C@H](N)[C@@H]2O)C[C@@H]2O[C@](O)(C[C@@H](O)C[C@@H](O)[C@H](O)CC[C@@H](O)C[C@@H](O)CC(=O)O[C@H]1C)C[C@H](O)[C@H]2C(=O)O [amphotericin B] (first compound 12.5 µM) | 0.264 |
| O=c1oc(Cl)c(Cl)c2ccccc12 [3,4-Dichloroisocoumarin] + C[C@@H]1[C@H](O)[C@@H](C)/C=C/C=C/C=C/C=C/C=C/C=C/C=C/[C@H](O[C@@H]2O[C@H](C)[C@@H](O)[C@H](N)[C@@H]2O)C[C@@H]2O[C@](O)(C[C@@H](O)C[C@@H](O)[C@H](O)CC[C@@H](O)C[C@@H](O)CC(=O)O[C@H]1C)C[C@H](O)[C@H]2C(=O)O [amphotericin B] (first compound 12.5 µM) | 0.252 |
| CC(C)CN(C[C@@H](O)[C@H](Cc1ccccc1)NC(=O)O[C@H]1CCOC1)S(=O)(=O)c1ccc(N)cc1 [amprenavir] + OC(Cn1cncn1)(Cn1cncn1)c1ccc(F)cc1F [fluconazole] (first compound 12.5 µM) | 0.264 |
| CCOC(=O)[C@H](CCc1ccccc1)N[C@@H](C)C(=O)N1CCC[C@H]1C(=O)O [Enalapril] + CC[C@H](C)C[C@H](C)CCCCCCCCC(=O)N[C@H]1C[C@@H](O)[C@@H](NCCN)NC(=O)[C@@H]2[C@@H](O)CCN2C(=O)[C@H]([C@H](O)CCN)NC(=O)[C@H]([C@H](O)[C@@H](O)c2ccc(O)cc2)NC(=O)[C@@H]2C[C@@H](O)CN2C(=O)[C@H]([C@@H](C)O)NC1=O [caspofungin] (first compound 12.5 µM) | 0.266 |
| CC(C)C[C@@H](C=O)NC(=O)[C@H](CC(C)C)NC(=O)[C@H](CC(C)C)NC(=O)OCc1ccccc1 + OC(Cn1cncn1)(Cn1cncn1)c1ccc(F)cc1F [fluconazole] (first compound 12.5 µM) | 0.277 |

----------
A collection of compounds and their measured biofilm OD600
# Tested on: Candida albicans SNY425 biofilm
# test: biofilm OD600 with compound plus antifungal (OD600 (absorbance)); higher = more biofilm remaining
# measurement.setup: assay detail: sustained inhibition (compound + antifungal during 90-min adherence and 24-h growth)
Counter-ions that a name gives are not always drawn.
measured.endpoint: biofilm OD600

| compound | assayed.target | assay.value |
| --- | --- | --- |
| N[C@H](C(=O)O)[C@@H]1CC(Cl)=NO1 [Acivicin] + CC[C@H](C)C[C@H](C)CCCCCCCCC(=O)N[C@H]1C[C@@H](O)[C@@H](NCCN)NC(=O)[C@@H]2[C@@H](O)CCN2C(=O)[C@H]([C@H](O)CCN)NC(=O)[C@H]([C@H](O)[C@@H](O)c2ccc(O)cc2)NC(=O)[C@@H]2C[C@@H](O)CN2C(=O)[C@H]([C@@H](C)O)NC1=O [caspofungin] (first compound 4 µM) | Candida albicans SNY425 biofilm | 0.163 |
| CCCC[C@@H](C=O)NC(=O)OC(C)(C)C + CC[C@H](C)C[C@H](C)CCCCCCCCC(=O)N[C@H]1C[C@@H](O)[C@@H](NCCN)NC(=O)[C@@H]2[C@@H](O)CCN2C(=O)[C@H]([C@H](O)CCN)NC(=O)[C@H]([C@H](O)[C@@H](O)c2ccc(O)cc2)NC(=O)[C@@H]2C[C@@H](O)CN2C(=O)[C@H]([C@@H](C)O)NC1=O [caspofungin] (first compound 12.5 µM) | Candida albicans SNY425 biofilm | 0.167 |
| CC(C)C[C@H](NP(=O)(O)O[C@@H]1O[C@@H](C)[C@H](O)[C@@H](O)[C@H]1O)C(=O)N[C@@H](Cc1c[nH]c2ccccc12)C(=O)O [Phosphoramidon] + CC[C@H](C)C[C@H](C)CCCCCCCCC(=O)N[C@H]1C[C@@H](O)[C@@H](NCCN)NC(=O)[C@@H]2[C@@H](O)CCN2C(=O)[C@H]([C@H](O)CCN)NC(=O)[C@H]([C@H](O)[C@@H](O)c2ccc(O)cc2)NC(=O)[C@@H]2C[C@@H](O)CN2C(=O)[C@H]([C@@H](C)O)NC1=O [caspofungin] (first compound 12.5 µM) | Candida albicans SNY425 biofilm | 0.191 |
| CCCCCCCCCC(=O)N[C@@H](CCCN=C(N)N)C(=O)N[C@H](C(=O)N[C@@H](CCCCN)C(=O)N[C@@H](CCCN=C(N)N)C(=O)CCl)C(C)C + C[C@@H]1[C@H](O)[C@@H](C)/C=C/C=C/C=C/C=C/C=C/C=C/C=C/[C@H](O[C@@H]2O[C@H](C)[C@@H](O)[C@H](N)[C@@H]2O)C[C@@H]2O[C@](O)(C[C@@H](O)C[C@@H](O)[C@H](O)CC[C@@H](O)C[C@@H](O)CC(=O)O[C@H]1C)C[C@H](O)[C@H]2C(=O)O [amphotericin B] (first compound 4 µM) | Candida albicans SNY425 biofilm | 0.188 |
| Cc1ccc(S(=O)(=O)N[C@@H](Cc2ccccc2)C(=O)CCl)cc1 + OC(Cn1cncn1)(Cn1cncn1)c1ccc(F)cc1F [fluconazole] (first compound 4 µM) | Candida albicans SNY425 biofilm | 0.0966 |
| C[C@]1(Cn2ccnn2)[C@H](C(=O)O)N2C(=O)C[C@H]2S1(=O)=O [Tazobactam] + CC[C@H](C)C[C@H](C)CCCCCCCCC(=O)N[C@H]1C[C@@H](O)[C@@H](NCCN)NC(=O)[C@@H]2[C@@H](O)CCN2C(=O)[C@H]([C@H](O)CCN)NC(=O)[C@H]([C@H](O)[C@@H](O)c2ccc(O)cc2)NC(=O)[C@@H]2C[C@@H](O)CN2C(=O)[C@H]([C@@H](C)O)NC1=O [caspofungin] (first compound 12.5 µM) | Candida albicans SNY425 biofilm | 0.181 |
| O=C(O[C@@H]1Cc2c(O)cc(O)cc2O[C@@H]1c1cc(O)c(O)c(O)c1)c1cc(O)c(O)c(O)c1 [Epigallocatechin gallate] + CC[C@H](C)C[C@H](C)CCCCCCCCC(=O)N[C@H]1C[C@@H](O)[C@@H](NCCN)NC(=O)[C@@H]2[C@@H](O)CCN2C(=O)[C@H]([C@H](O)CCN)NC(=O)[C@H]([C@H](O)[C@@H](O)c2ccc(O)cc2)NC(=O)[C@@H]2C[C@@H](O)CN2C(=O)[C@H]([C@@H](C)O)NC1=O [caspofungin] (first compound 12.5 µM) | Candida albicans SNY425 biofilm | 0.211 |
| CC[C@H](C)[C@H](N)C(=O)N1CCSC1 [P32/98 hemifumarate salt] + OC(Cn1cncn1)(Cn1cncn1)c1ccc(F)cc1F [fluconazole] (first compound 12.5 µM) | Candida albicans SNY425 biofilm | 0.128 |
| CC(C)C[C@H](NC(=O)[C@@H](O)[C@H](N)Cc1ccccc1)C(=O)O [Bestatin·HCl] + OC(Cn1cncn1)(Cn1cncn1)c1ccc(F)cc1F [fluconazole] (first compound 12.5 µM) | Candida albicans SNY425 biofilm | 0.163 |
| CCC(C)[C@H](NS(=O)(=O)c1cccc2ccccc12)C(=O)N[C@H](C=O)Cc1c[nH]c2ccccc12 (stereo not given in full) + OC(Cn1cncn1)(Cn1cncn1)c1ccc(F)cc1F [fluconazole] (first compound 12.5 µM) | Candida albicans SNY425 biofilm | 0.14 |
